FYI, the data here is from patent US20230416410A1.

Biological target: T1, recombinant bovine FcgR2 (bovine, UniProt Q28110 43-225, limits assumed, biotin on the BAP tag (BirA))
T1 construct: also called bFcgR2; bFcgRII
T1 sequence: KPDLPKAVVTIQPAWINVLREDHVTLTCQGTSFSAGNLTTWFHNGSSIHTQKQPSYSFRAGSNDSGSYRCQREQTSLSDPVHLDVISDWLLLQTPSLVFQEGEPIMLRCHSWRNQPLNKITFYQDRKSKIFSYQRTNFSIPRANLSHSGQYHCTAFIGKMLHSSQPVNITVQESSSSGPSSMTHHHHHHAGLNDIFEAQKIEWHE
Experiment: SPR Biacore, biotinylated receptor on SA sensor, pH 7.4, 15 C
experimental-endpoint: binding result

CTLA4 Fc bIgG3bSAS (Fc fusion, No linker) DMHVAQPAVVLASSRGVASFVCEYGSSGNAAEVRVTVLRQAGSQMTEVCAATYTVEDELAFLDDSTCTGTSSGNKVNLTIQGLRAMDTGLYICKVELMYPPPYYVGMGNGTQIYVIDPEPCPDSDTARRPVPTTPKTTIPPGKPTTQESEVEKTPCQCSKCPEPLGGLSVFIFPPKPKDTLTISGTPEVTCVVVDVGQDDPEVQFSWFVDDVEVHTARTKPREEQFNSTYRVVSALRIQHQDWLQGKEFKCKVNNKGLSASIVRTISRTKGQAREPQVYVLAPPREELSKSTLSLTCLITGFYPEEIDVEWQRNGQPESEDKYHTTAPQLDADGSYFLYSRLRVNKSSWQEGDHYTCAVMHEALRNHYKEKSISRSPGK : no binding
CTLA4 Fc bIgG3bWin (Fc fusion, No linker) DMHVAQPAVVLASSRGVASFVCEYGSSGNAAEVRVTVLRQAGSQMTEVCAATYTVEDELAFLDDSTCTGTSSGNKVNLTIQGLRAMDTGLYICKVELMYPPPYYVGMGNGTQIYVIDPEPCPDSDTARRPVPTTPKTTIPPGKPTTQESEVEKTPCQCSKCPEAAGALSVFIFPPKPKDTLTISGTPEVTCVVVDVGQDDPEVQFSWFVDDVEVHTARTKPREEQFNSTYRVVSALRIQHQDWLQGKEFKCKVNNKGLPAPIVRTISRTKGQAREPQVYVLAPPREELSKSTLSLTCLITGFYPEEIDVEWQRNGQPESEDKYHTTAPQLDADGSYFLYSRLRVNKSSWQEGDHYTCAVMHEALRNHYKEKSISRSPGK : no binding
CTLA4 Fc bIgG3bSAP (Fc fusion, No linker) DMHVAQPAVVLASSRGVASFVCEYGSSGNAAEVRVTVLRQAGSQMTEVCAATYTVEDELAFLDDSTCTGTSSGNKVNLTIQGLRAMDTGLYICKVELMYPPPYYVGMGNGTQIYVIDPEPCPDSDTARRPVPTTPKTTIPPGKPTTQESEVEKTPCQCSKCPEPLGGLSVFIFPPKPKDTLTISGTPEVTCVVVDVGQDDPEVQFSWFVDDVEVHTARTKPREEQFNSTYRVVSALRIQHQDWLQGKEFKCKVNNKGLSAPIVRTISRTKGQAREPQVYVLAPPREELSKSTLSLTCLITGFYPEEIDVEWQRNGQPESEDKYHTTAPQLDADGSYFLYSRLRVNKSSWQEGDHYTCAVMHEALRNHYKEKSISRSPGK : no binding
